tested on: UACC-62 (Melanoma); assay: NCI Developmental Therapeutics antiproliferative assay, UACC-62; assay type: cell-based, human; settings: Homo sapiens; UACC-62; 50% growth inhibition; read-out: Cytotoxicity (GI50) Melanoma UACC-62
Give GI50 for every item shown.
Give the value, in units of µM, as a plain number.

State the recorded GI50 for this entry: O=C1c2ccccc2-c2c1c1ccccc1c(=O)n2C[C@@H](O)CO [Compound 12b] 4.36

If you can, please state the reported GI50 value of O=C1c2ccccc2-c2c1c1ccccc1c(=O)n2C[C@H](O)CO [Compound 12a] . 5.37

// query GI50 value for entry `O=C(CO)Cn1c2c(c3ccccc3c1=O)C(=O)c1ccccc1-2` 58.9

Item `O=C1c2ccccc2-c2c1c1ccc([N+](=O)[O-])cc1c(=O)n2C[C@H](O)[C@@H](O)[C@H](O)[C@H](O)CO` has what recorded GI50? 2.98

// lookup GI50 for O=C1c2ccccc2-c2c1c1ccccc1c(=O)n2CC(O)CO (racemic) [Compound 12c] 7.58
